Experiment: Fate of ⁵⁹Fe tracer incubated with chelator and injected into normal rats (radioiron distribution and excretion)
Format: in vivo
Settings: 10 mg chelator with ⁵⁹Fe, subcutaneous, normal rats, cumulative within 4 days
READOUT_KIND: Radioiron Distribution in % Total excretion (%)

[[record]]
molecule = "CC(=O)N(O)CCCCCNC(=O)CCC(=O)N(O)CCCCCNC(=O)CCC(=O)N(O)CCCCCN [Desferral, desferrioxamine, reference compound]"
units_symbol = "%"
recorded_value = 85.4

[[record]]
molecule = "CCOC(=O)[n+]1cc(CO)c(C=NNc2ncccn2)c(O)c1C [Ex. 5]"
units_symbol = "%"
recorded_value = 96.2

[[record]]
molecule = "Cc1c(O)c(C=NNC(=O)c2cc[n+](C)cc2)c(CO)c[n+]1C.[I-].[I-] [Comparative Compound B, reference compound]"
units_symbol = "%"
recorded_value = 39.2

[[record]]
molecule = "Cc1ncc(CO)c(C=NNC(=O)c2cc[n+](C)cc2)c1O.[I-] [Ex. A, reference compound]"
units_symbol = "%"
recorded_value = 26.4


====

Recorded Radioiron Distribution in % Urine by entry
Experiment: Fate of ⁵⁹Fe tracer incubated with chelator and injected into normal rats (radioiron distribution and excretion)
Assay type: in vivo
Settings: 10 mg chelator with ⁵⁹Fe, subcutaneous, normal rats, cumulative within 4 days
READOUT_KIND: Radioiron Distribution in % Urine (%)

[[record]]
molecule = "Cc1ncc(CO)c(C=NNC(=O)c2cc[n+](C)cc2)c1O.[I-] [Ex. A, reference compound]"
recorded_value = 3.7

[[record]]
molecule = "CC(=O)N(O)CCCCCNC(=O)CCC(=O)N(O)CCCCCNC(=O)CCC(=O)N(O)CCCCCN [Desferral, desferrioxamine, reference compound]"
recorded_value = 71.9

[[record]]
molecule = "CCOC(=O)[n+]1cc(CO)c(C=NNc2ncccn2)c(O)c1C"
recorded_value = 28.9

[[record]]
molecule = "Cc1c(O)c(C=NNC(=O)c2cc[n+](C)cc2)c(CO)c[n+]1C.[I-].[I-] [Comparative Compound B, reference compound]"
recorded_value = 30.6


====

Measured TOTAL EXCRETION OF RADIO-IRON IN RATS % accompanies every entry in the list below.
Test: Fate of ⁵⁹Fe tracer incubated with chelator and injected into normal rats (radioiron distribution and excretion)
Format: in vivo
Details: as in Table 1
READOUT_KIND: TOTAL EXCRETION OF RADIO-IRON IN RATS % (%)

[[record]]
molecule = "CCOC(=O)[n+]1cc(CO)c(C=NNc2ncccn2)c(O)c1C"
recorded_value = 96.2

[[record]]
molecule = "Cc1ncc(CO)c(C=NNC(=O)c2cc[n+](C)cc2)c1O.[I-] [Ex. A, reference compound]"
recorded_value = 26.4

[[record]]
molecule = "Cc1ncc(CO)c(C=NNc2ccccn2)c1O"
recorded_value = 34.2

[[record]]
molecule = "CC(=O)N(O)CCCCCNC(=O)CCC(=O)N(O)CCCCCNC(=O)CCC(=O)N(O)CCCCCN [Desferral, desferrioxamine, reference compound]"
recorded_value = 85.4


====

Assay: Fate of ⁵⁹Fe tracer incubated with chelator and injected into normal rats (radioiron distribution and excretion)
Type: in vivo
Settings: 10 mg chelator with ⁵⁹Fe, subcutaneous, normal rats, within 4 days
READOUT_KIND: Radioiron Distribution in % Liver (%)

[[record]]
compound = "Cc1ncc(CO)c(C=NNC(=O)c2cc[n+](C)cc2)c1O.[I-] [Ex. A, reference compound]"
recorded_value = 12.8

[[record]]
compound = "Cc1c(O)c(C=NNC(=O)c2cc[n+](C)cc2)c(CO)c[n+]1C.[I-].[I-] [Comparative Compound B, reference compound]"
recorded_value = 8.2

[[record]]
compound = "CCOC(=O)[n+]1cc(CO)c(C=NNc2ncccn2)c(O)c1C"
recorded_value = 2.9

[[record]]
compound = "CC(=O)N(O)CCCCCNC(=O)CCC(=O)N(O)CCCCCNC(=O)CCC(=O)N(O)CCCCCN [Desferral, desferrioxamine, reference compound]"
recorded_value = 2.7


====

Property: Radioiron Distribution in % Spleen; scope: individual compounds
Experiment: Fate of ⁵⁹Fe tracer incubated with chelator and injected into normal rats (radioiron distribution and excretion)
Format: in vivo
Conditions: 10 mg chelator with ⁵⁹Fe, subcutaneous, normal rats, within 4 days
READOUT_KIND: Radioiron Distribution in % Spleen (%)

[[record]]
compound = "Cc1c(O)c(C=NNC(=O)c2cc[n+](C)cc2)c(CO)c[n+]1C.[I-].[I-] [Comparative Compound B, reference compound]"
recorded_value = 0.36

[[record]]
compound = "Cc1ncc(CO)c(C=NNC(=O)c2cc[n+](C)cc2)c1O.[I-] [Ex. A, reference compound]"
recorded_value = 0.56

[[record]]
compound = "CC(=O)N(O)CCCCCNC(=O)CCC(=O)N(O)CCCCCNC(=O)CCC(=O)N(O)CCCCCN [Desferral, desferrioxamine, reference compound]"
recorded_value = 0.14

[[record]]
compound = "CCOC(=O)[n+]1cc(CO)c(C=NNc2ncccn2)c(O)c1C"
recorded_value = 0.06

